Listed next: entries and their corresponding pKi.
Protein target, amino acids: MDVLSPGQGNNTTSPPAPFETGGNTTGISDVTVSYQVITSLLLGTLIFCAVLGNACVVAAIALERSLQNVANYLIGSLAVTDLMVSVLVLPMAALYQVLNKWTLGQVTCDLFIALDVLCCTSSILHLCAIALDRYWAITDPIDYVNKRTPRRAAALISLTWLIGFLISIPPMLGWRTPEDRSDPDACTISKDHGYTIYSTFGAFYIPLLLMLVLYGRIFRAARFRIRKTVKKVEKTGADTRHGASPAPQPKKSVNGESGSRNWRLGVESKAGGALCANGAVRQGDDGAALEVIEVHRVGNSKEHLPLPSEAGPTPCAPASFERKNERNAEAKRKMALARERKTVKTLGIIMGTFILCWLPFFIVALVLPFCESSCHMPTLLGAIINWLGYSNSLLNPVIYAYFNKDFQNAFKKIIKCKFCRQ
pKi: −log10 of the molar value.

>  <Compound>
COc1ccccc1N1CCN(C[C@@H](O)CN2C(=O)N[C@@](C)(c3ccc(F)cc3)C2=O)CC1

>  <pKi>
6.51

$$$$
>  <Compound>
COc1ccccc1N1CCN(C[C@@H](O)CN2C(=O)N[C@](C)(c3ccc(F)cc3)C2=O)CC1

>  <pKi>
5.72

$$$$
>  <Compound>
COc1ccccc1N1CCN(C[C@H](O)CN2C(=O)N[C@@](C)(c3ccc(F)cc3)C2=O)CC1

>  <pKi>
6.66

$$$$
>  <Compound>
C[C@@]1(c2ccc(F)cc2)NC(=O)N(C[C@H](O)CN2CCN(C(c3ccccc3)c3ccccc3)CC2)C1=O

>  <pKi>
5.05

$$$$
>  <Compound>
CC1(c2ccc(F)cc2)NC(=O)N(CC(O)CN2CCN(C(c3ccccc3)c3ccccc3)CC2)C1=O (centres unmarked)

>  <pKi>
5.25

$$$$

----------
molecular target: 5-HT7R (Homo sapiens, UniProt P34969); assay: cAMP functional assay (HTRF), antagonist effect, CHO cells; format: cell-based; conditions: cAMP, CHO cells, h5-HT7 antagonist effect vs 300 nM serotonin
Sequence (P34969 1-445 isoform P34969-2): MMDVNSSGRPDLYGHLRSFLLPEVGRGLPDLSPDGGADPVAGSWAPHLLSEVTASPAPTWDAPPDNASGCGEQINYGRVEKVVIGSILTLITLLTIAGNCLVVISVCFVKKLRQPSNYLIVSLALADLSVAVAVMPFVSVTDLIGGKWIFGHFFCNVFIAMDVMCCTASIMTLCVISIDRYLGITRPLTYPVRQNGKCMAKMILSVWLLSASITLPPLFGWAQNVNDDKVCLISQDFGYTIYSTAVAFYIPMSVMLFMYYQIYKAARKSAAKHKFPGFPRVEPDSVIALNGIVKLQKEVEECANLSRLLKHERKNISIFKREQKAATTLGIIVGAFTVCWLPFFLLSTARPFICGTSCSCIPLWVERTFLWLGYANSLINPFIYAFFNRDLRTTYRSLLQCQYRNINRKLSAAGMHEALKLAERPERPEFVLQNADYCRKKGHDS
pIC50: −log10 of the molar value.

>  <Smiles data>
C[C@@]1(c2ccc(F)cc2)NC(=O)N(C[C@H](O)CN2CCN(C(c3ccccc3)c3ccccc3)CC2)C1=O

>  <Tgt>
5-HT7R (Homo sapiens, UniProt P34969)

>  <pIC50>
6.95

$$$$

Source: paper PMC11587507
